# Assay Target: T1, human corticotropin-releasing hormone receptor 1 (CRHR1) (human, UniProt P34998 24-415)
# T1 sequence (looked up): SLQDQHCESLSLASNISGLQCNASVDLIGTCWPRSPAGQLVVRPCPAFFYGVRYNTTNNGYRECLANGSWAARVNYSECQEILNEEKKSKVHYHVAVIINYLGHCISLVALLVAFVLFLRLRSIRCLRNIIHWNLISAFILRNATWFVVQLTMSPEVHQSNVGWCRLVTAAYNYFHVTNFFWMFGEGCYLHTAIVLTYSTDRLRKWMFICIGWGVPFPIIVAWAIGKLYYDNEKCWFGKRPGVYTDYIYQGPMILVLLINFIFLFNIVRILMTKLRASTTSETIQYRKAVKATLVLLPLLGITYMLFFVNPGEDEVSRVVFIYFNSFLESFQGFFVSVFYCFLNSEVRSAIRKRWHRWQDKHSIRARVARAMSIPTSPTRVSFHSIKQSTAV
# Measurement Notes: cell-based or functional assay
*1 amine or outer side, *2 acyl side, *3 side chain or, on linkers, in order; H or OH if unused. Side-chain parts run from the residue outwards. [ ]: non-standard residue; d: D form. The star is where a group is joined. C20 diacid = O=C(O)CCCCCCCCCCCCCCCCCCC(=O)*; C18 diacid = O=C(O)CCCCCCCCCCCCCCCCC(=O)*; γGlu = O=C(O)[C@H](CCC(=O)[*:2])N[*:1]; εLys = N[C@@H](CCCCN[*:1])C(=O)[*:2]; pGlu = O=C1CC[C@@H](C(=O)O)N1; αMeL = CC(C)C[C@](C)(N)C(=O)O; AEEA = NCCOCCOCC(=O)O; Aib = CC(C)(N)C(=O)O; βAla = NCCC(=O)O
Measurement Kind: hCRHR1 cAMP EC50

[
  {
    "Binder": "Ac-IVTS[αMeL]D[dV]PTG[αMeL]LQIKLEQERAEKARQQAKENTEILAQV-NH2 (not fully specified (residue 29)) [polypeptide comprising SEQ ID NO:32]",
    "Observed Value": "> 10 µM"
  },
  {
    "Binder": "Ac-GSPSIVTS[αMeL]DVPT[Aib][αMeL]LQKILEQERAEKARQQAK([Gly-βAla-βAla-βAla-βAla-γGlu-C20 diacid])EAAEILAQV-NH2 [polypeptide comprising SEQ ID NO:8]",
    "Observed Value": "> 10 µM"
  },
  {
    "Binder": "Ac-IVTS[αMeL]D[dV]PTG[αMeL]LQIKLEQERAEKARQQAKENTEILAQV-NH2 (not fully specified (residue 29)) [polypeptide comprising SEQ ID NO:36]",
    "Observed Value": "1.8 µM"
  },
  {
    "Binder": "Ac-IVTS[αMeL]D[dV]PTG[αMeL]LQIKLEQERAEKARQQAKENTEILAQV-NH2 (not fully specified (residue 29)) [polypeptide comprising SEQ ID NO:33]",
    "Observed Value": "1.1 µM"
  },
  {
    "Binder": "[pGlu]GSPSGIVTS[αMeL]DVPT[Aib][αMeL]LQKILEQERAEKARQQAK([γGlu-AEEA-εLys-C18 diacid])EAAEILAQV-NH2 [polypeptide comprising SEQ ID NO:24]",
    "Observed Value": "> 10 µM"
  },
  {
    "Binder": "Ac-GSPSIVTS[αMeL]DVPT[Aib][αMeL]LQKILEQERAEKARQQAK([γGlu-GKEKEKE-C20 diacid])EAAEILAQV-NH2 [polypeptide comprising SEQ ID NO:6]",
    "Observed Value": "> 10 µM"
  },
  {
    "Binder": "Ac-IVTS[αMeL]D[dV]PTG[αMeL]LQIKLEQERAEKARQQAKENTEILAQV-NH2 (not fully specified (residue 29)) [polypeptide comprising SEQ ID NO:40]",
    "Observed Value": "> 10 µM"
  },
  {
    "Binder": "Ac-GSPSIVTS[αMeL]DVPT[Aib][αMeL]LQKILEQERAEKARQQAK([βAla-Ser-βAla-Ser-γGlu-C20 diacid])EAAEILAQV-NH2 [polypeptide comprising SEQ ID NO:10]",
    "Observed Value": "> 10 µM"
  },
  {
    "Binder": "Ac-IVTS[αMeL]D[dV]PTG[αMeL]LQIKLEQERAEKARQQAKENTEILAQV-NH2 (not fully specified (residue 29)) [polypeptide comprising SEQ ID NO:38]",
    "Observed Value": "1.1 µM"
  }
]

Sourced from patent US20250163119A1
